# assayed-system: HLA-B4403 (Homo sapiens, UniProt P01889, A223V/A65T/A93T/A95T/D201E/D98Y/E176V/E187L/E204Q/E69K/G107R/H137Y/K202T/L105A/L119I/N104T/N87E/Q56L/Q94N/R106L/R155S/R180L/S101N/S121R/S35A/S48T/T118I/V36M/W191S/Y140D/Y91S)
# method-description: Competitive peptide binding assay, CIR-B4403
# run-parameters: HMy2.CIR-B4403 cells, reference Cy5-CYMEAVAL, class from inhibition at 5 and 15 μM, flow cytometry MFI; read-out: Binding affinity with HLA-B4403
Peptide text beside a SMILES is read from it.
measured-quantity: IC50

// worked examples, IC50 included
compound	IC50
CC[C@H](C)[C@H](NC(=O)[C@H](CC(N)=O)NC(=O)[C@H](CCCCN)NC(=O)[C@H](Cc1ccccc1)NC(=O)[C@@H](NC(=O)[C@@H](N)Cc1ccccc1)C(C)C)C(=O)N[C@@H](CC(=O)O)C(=O)NCC(=O)N[C@@H](Cc1ccc(O)cc1)C(=O)O [Epitope Y172] (H-FVFKNIDGY-OH; N-terminus and C-terminus assumed)	> 15 µM
CC[C@H](C)[C@H](NC(=O)[C@H](CC(C)C)NC(=O)[C@H](CS)NC(=O)CNC(=O)[C@H](C)NC(=O)[C@H](CCCNC(=N)N)NC(=O)[C@@H](NC(=O)[C@H](CCC(N)=O)NC(=O)[C@@H](N)Cc1ccccc1)[C@@H](C)O)C(=O)O [Epitope Y89] (H-FQTRAGCLI-OH; N-terminus and C-terminus assumed)	> 15 µM

Input line: Would you kindly share the measured IC50 for CC(C)[C@H](NC(=O)[C@@H](NC(=O)[C@@H](N)Cc1ccccc1)C(C)C)C(=O)N[C@@H](CO)C(=O)N[C@H](C(=O)NCC(=O)N[C@@H](Cc1ccc(O)cc1)C(=O)N[C@@H](Cc1c[nH]cn1)C(=O)N[C@@H](Cc1ccccc1)C(=O)O)[C@@H](C)O [Epitope Y167] (H-FVVSTGYHF-OH; N-terminus and C-terminus assumed) ?
Output line: > 15 µM
